Molecular target: human AHR (Homo sapiens, UniProt P35869)
Construct: from tissue; host or cells: liver cytosol of liver-specific hAHR transgenic mice
Sequence (P35869 11-848): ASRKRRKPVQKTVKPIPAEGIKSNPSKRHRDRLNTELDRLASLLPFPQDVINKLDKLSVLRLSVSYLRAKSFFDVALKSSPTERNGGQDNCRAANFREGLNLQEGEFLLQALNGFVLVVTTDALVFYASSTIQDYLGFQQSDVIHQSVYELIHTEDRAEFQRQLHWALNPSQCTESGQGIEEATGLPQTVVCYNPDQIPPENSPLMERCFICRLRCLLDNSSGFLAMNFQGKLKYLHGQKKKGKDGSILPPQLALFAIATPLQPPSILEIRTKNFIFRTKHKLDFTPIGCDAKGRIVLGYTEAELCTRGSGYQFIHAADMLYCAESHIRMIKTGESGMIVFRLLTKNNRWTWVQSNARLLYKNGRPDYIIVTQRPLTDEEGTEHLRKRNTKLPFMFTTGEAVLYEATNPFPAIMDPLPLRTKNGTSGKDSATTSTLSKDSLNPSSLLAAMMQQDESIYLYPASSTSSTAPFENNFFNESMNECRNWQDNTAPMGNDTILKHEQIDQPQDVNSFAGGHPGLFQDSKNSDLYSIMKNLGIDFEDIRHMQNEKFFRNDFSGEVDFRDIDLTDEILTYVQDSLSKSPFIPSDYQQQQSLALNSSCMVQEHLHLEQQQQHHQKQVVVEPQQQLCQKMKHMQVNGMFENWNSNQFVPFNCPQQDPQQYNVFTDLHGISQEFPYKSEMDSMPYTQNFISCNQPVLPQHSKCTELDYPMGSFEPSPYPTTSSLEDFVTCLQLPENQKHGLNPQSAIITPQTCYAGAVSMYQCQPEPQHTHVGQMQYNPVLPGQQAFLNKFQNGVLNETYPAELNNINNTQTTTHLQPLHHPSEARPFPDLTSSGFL
Test: Photo-affinity ligand (PAL) competitive binding to human AHR in liver cytosol of hAHR transgenic mice
Details: 20 min competitive binding, liver cytosol of hAHR transgenic mice; read-out: EC50 as competitive ligand for human AHR (PAL assay)
experimental readout: EC50
Write down the value, and be sure its unit follows.

Q: Hello, I am looking for reported EC50 with human AHR (Homo sapiens, UniProt P35869) for COc1cccc2c1c(O)c(C(=O)N(C)c1ccc(C(F)(F)F)cc1)c(=O)n2C [TasQ, Tasquinimod] . Could you help?
Ans: 1000 nM

###

System: CWR22-RH human prostate cancer PDXs
Test: In vivo growth of CWR22-RH xenografts in castrate NSG male mice
Settings: in vivo
experimental readout: growth inhibitor (GI) activity on CWR22-RH xenografts (SAR summary)

Q: May I ask what growth inhibitor (GI) activity on CWR22-RH xenografts (SAR summary) has been recorded for `COc1cccc2c1c(OCCNC(=O)OC(C)(C)C)c(C(=O)N(c1ccc(C(F)(F)F)cc1)C1CCCCC1)c(=O)n2C` ?
Ans: no GI activity

Q: May I ask what growth inhibitor (GI) activity on CWR22-RH xenografts (SAR summary) has been recorded for COc1cccc2c1c(O)c(C(=O)N(c1ccc(C(F)(F)F)cc1)C1CCC(C(F)(F)F)CC1)c(=O)n2C (stereo not shown) ?
Ans: no GI activity

Q: May I ask what growth inhibitor (GI) activity on CWR22-RH xenografts (SAR summary) has been recorded for `COc1cccc2c1c(O)c(C(=O)N(c1ccc(C(F)(F)F)cc1)C(C)C)c(=O)n2C` ?
Ans: no GI activity

Q: May I ask what growth inhibitor (GI) activity on CWR22-RH xenografts (SAR summary) has been recorded for `CCOc1c(C(=O)N(c2ccc(C(F)(F)F)cc2)C2CCCCC2)c(=O)n(C)c2cccc(OC)c12` ?
Ans: no GI activity

Q: May I ask what growth inhibitor (GI) activity on CWR22-RH xenografts (SAR summary) has been recorded for `COC(=O)c1c(O)c2c(OC)cccc2n(C)c1=O` ?
Ans: no GI activity

Let us examine a further case.
Q: May I ask what growth inhibitor (GI) activity on CWR22-RH xenografts (SAR summary) has been recorded for `COc1cccc2c1c(O)c(C(=O)N(CCOCc1ccccc1)c1ccc(C(F)(F)F)cc1)c(=O)n2C` ?
Ans: no GI activity

###

Test: Pharmacokinetic (PK) analysis after oral dosing in mice
Assay type: in vivo, mouse
Conditions: mouse, serum, oral, 10 mg/kg; read-out: alpha half-life for tissue distribution (converted)
experimental readout: half-life

Q: May I ask what half-life has been recorded for `COc1cccc2c1c(O)c(C(=O)N(c1ccc(C(F)(F)F)cc1)C1CCCCC1)c(=O)n2C` ?
Ans: 180 min

###

Assay: Pharmacokinetic (PK) analysis after oral dosing in mice
Type: in vivo, mouse
Details: mouse, serum; 10 mg/kg oral dose
experimental readout: Cmax (µM)
Dear colleague, please return just the value in µM, with no unit written.

Q: May I ask what Cmax has been recorded for COc1cccc2c1c(O)c(C(=O)N(c1ccc(C(F)(F)F)cc1)C1CCCCC1)c(=O)n2C [ESATA-20] ?
Ans: 7.91

###

Biological target: fl-HDAC4 (wild-type) (Homo sapiens)
Construct: Full-length (fl) [A.A. 1-1082] recombinant human histone deacetylase 4 (rhHDAC4) protein; FLAG (N); GST (given as 'with or without'); made in house; host or cells: HEK293-T
Sequence (P56524 whole entry): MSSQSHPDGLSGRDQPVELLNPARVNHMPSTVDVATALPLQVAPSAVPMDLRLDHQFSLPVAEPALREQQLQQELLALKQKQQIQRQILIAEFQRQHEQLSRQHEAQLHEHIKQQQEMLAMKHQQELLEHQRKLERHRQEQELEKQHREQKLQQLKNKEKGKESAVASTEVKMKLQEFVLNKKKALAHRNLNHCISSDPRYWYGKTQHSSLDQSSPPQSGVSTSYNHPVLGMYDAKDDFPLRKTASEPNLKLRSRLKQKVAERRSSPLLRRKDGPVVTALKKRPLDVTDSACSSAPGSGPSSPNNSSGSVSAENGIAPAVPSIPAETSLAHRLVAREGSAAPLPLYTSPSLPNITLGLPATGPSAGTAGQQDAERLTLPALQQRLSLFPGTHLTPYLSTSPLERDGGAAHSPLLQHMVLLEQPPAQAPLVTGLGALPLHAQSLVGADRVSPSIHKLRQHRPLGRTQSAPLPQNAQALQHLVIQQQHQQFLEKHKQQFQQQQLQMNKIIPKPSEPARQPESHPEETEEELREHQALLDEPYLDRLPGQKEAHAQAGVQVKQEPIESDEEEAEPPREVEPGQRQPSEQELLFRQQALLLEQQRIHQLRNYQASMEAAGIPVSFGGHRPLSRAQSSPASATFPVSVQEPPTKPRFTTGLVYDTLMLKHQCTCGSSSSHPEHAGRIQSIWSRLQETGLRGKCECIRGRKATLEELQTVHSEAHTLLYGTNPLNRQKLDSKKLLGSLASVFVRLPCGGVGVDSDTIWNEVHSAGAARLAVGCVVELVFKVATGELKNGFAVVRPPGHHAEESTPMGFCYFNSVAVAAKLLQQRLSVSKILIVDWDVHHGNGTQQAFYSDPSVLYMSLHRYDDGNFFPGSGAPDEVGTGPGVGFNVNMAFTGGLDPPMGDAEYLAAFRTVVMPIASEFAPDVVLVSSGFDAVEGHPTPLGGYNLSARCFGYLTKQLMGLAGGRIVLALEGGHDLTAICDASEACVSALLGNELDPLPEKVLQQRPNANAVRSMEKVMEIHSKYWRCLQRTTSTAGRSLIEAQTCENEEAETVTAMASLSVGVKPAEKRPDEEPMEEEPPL
Test: SPR binding analysis TasQ / fl-HDAC4
Conditions: fl-HDAC4 in solution, immobilized amine-linked TasQ, Zn2+; read-out: KD calculated from the on- and off-rates
pKd: −log10 of the molar value.
experimental readout: pKd

Q: May I ask what pKd has been recorded for COc1cccc2c1c(O)c(C(=O)N(C)c1ccc(C(F)(F)F)cc1)c(=O)n2C [TasQ, Tasquinimod] ?
Ans: ~7.70

###

Biological target: fl-HDAC4 (wild-type) (Homo sapiens)
Construct: Full-length (fl) [A.A. 1-1082] recombinant human histone deacetylase 4 (rhHDAC4) protein; FLAG (N); GST (given as 'with or without'); made in house; host or cells: HEK293-T
Assay: SPR binding analysis TasQ / fl-HDAC4
Details: compound in solution, immobilized fl-HDAC4, n=4; read-out: KD
experimental readout: pKd
Keep it numeric: pKd is minus log10 of the concentration in mol/L.

Q: May I ask what pKd has been recorded for `COc1cccc2c1c(O)c(C(=O)N(C)c1ccc(C(F)(F)F)cc1)c(=O)n2C` ?
Ans: 5.31

###

Target: HDAC4-NCoR1 complex (Homo sapiens)
Construct: Full-length (fl) [A.A. 1-1082] recombinant human histone deacetylase 4 (rhHDAC4) protein; FLAG (N); GST (given as 'with or without')
Assay: SPR inhibition of HDAC4-NCoR1 interaction
Details: sigmoidal dose-response fit; read-out: IC50 for competitive inhibition of fl-HDAC4 binding to immobilized NCoR1
experimental readout: IC50 (nM)
Dear colleague, please return just the value in nM, with no unit written.

Q: Hello, I am looking for reported IC50 with HDAC4-NCoR1 complex (Homo sapiens) for `COc1cccc2c1c(O)c(C(=O)N(C)c1ccc(C(F)(F)F)cc1)c(=O)n2C` . Could you help?
Ans: 1100

###

Experiment: Pharmacokinetic (PK) analysis after oral dosing in mice
Format: in vivo, mouse
Conditions: mouse, serum, oral, 10 mg/kg; read-out: beta half-life for serum elimination
experimental readout: half-life

Q: May I ask what half-life has been recorded for `COc1cccc2c1c(O)c(C(=O)N(c1ccc(C(F)(F)F)cc1)C1CCCCC1)c(=O)n2C` ?
Ans: 10 to 12 h

###

Test: Pharmacokinetic (PK) analysis after oral dosing in mice
Type: in vivo, mouse
Details: oral 5 mg/kg/d, 1 hr post-dosing; read-out: serum Cmax
Protocol: Oral Drug treatment. TasQ at the indicated dose was initially dissolved with equal molar 1 N sodium hydroxide. This solution was diluted with sterile water and the mixture stirred for 1 hr. The pH was then adjusted with 1 N HCl to 8.9 and 200 μL given daily via oral gavage. Pharmacokinetic (PK) Analysis. Plasma or serum samples; 50 uL of plasma or serum was transferred into a 1.7 mL microfuge tube. […]
experimental readout: Cmax (µM)
Dear colleague, please return just the value in µM, with no unit written.

Q: May I ask what Cmax has been recorded for `COc1cccc2c1c(O)c(C(=O)N(C)c1ccc(C(F)(F)F)cc1)c(=O)n2C` ?
Ans: 20

###

Target: nuclear MEF2/HDAC4/NCoR1 formation in CWR-22Rv1 cells (Homo sapiens)
Construct: endogenous in cells
Experiment: Nuclear NCoR1 immunoprecipitated with MEF-2 antibody in CWR-22Rv1 cells under hypoxia
Conditions: 1% O2, read-out: IC50 for inhibiting hypoxia-induced nuclear MEF2/HDAC4/NCoR1 formation (MEF-2 and NCoR1 IP)
experimental readout: pIC50
Keep it numeric: pIC50 is minus log10 of the concentration in mol/L.

Q: May I ask what pIC50 has been recorded for COc1cccc2c1c(O)c(C(=O)N(C)c1ccc(C(F)(F)F)cc1)c(=O)n2C [TasQ, Tasquinimod] ?
Ans: 5.30
